RAM network inhibition listing for selected molecules.
- ASSAY REMARKS: RAM signaling pathway blockade in yeast – S. cerevisiae, Pdr1DBD-CYC8 efflux-inhibited sensitized strain, primary screen (AID 1298);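 further: 0% = DMSO untreated cells without growth and 100% = 10 µM 1-NA-PP1 full growth; higher means more yeast growth rescued from 5-FOA killing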
- CONDITION DETAILS: S. cerevisiae cbk1-as DSE1-URA3 strain, 5-FOA growth OD615, 2 d; at 50 µM; stronger effect = higher value
Kindly answer with a numeric value in %, unit omitted.

Check out these entries, answers already filled in.
| MOLECULE | UNITS OF MEASURE | RAM network inhibition |
| --- | --- | --- |
| CCc1ccc(S(=O)(=O)NCc2cn3c(C)csc3n2)s1 | % | 2.22 |
| Cc1ccc(NC(=O)C2CCCN(S(=O)(=O)c3ccc4c(c3)oc(=O)n4C)C2)nc1 (stereo unspecified) | % | -2.07 |
| CCc1nnc(NC(=O)CN2CCOCC2)s1 | % | 6.14 |
| Cc1cc(N=CC2=C(O)CC(C)(C)CC2=O)no1 | % | 1.04 |
| CC(=O)N1CCC2(CC1)C(C#N)=C(N)Oc1n[nH]c(C)c12 | % | 6.55 |

Here is the next item to consider.
Name the recorded RAM network inhibition for `Cc1ccc(C(=O)NCc2ccc(Cl)c(Cl)c2)o1` .
1.28

====

- ASSAY REMARKS: growth suppression of beta-catenin knockout HCT116, pilot screen, human colon tumor cells (AID 823);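 further: 0% = wells killed by 20 µM Hyamine and 100% = untreated DMSO cell wells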
- CONDITION DETAILS: CellTiter-Glo, 60 h, at 10 µM, stronger effect = lower value
Records with an inconclusive call do not appear.
MEASURED PARAMETER: viability (%)
Field: numeric (%). Do not append units.

| COMPOUND | MEASURED RESULT |
| --- | --- |
| O=C(Nc1ccc2c(c1)OCO2)c1ccncc1 | 87.9 |

Dear colleague, I am looking for the recorded viability of the following compound: `Cc1c(C(=O)NCc2ccc3c(c2)OCO3)sc2nc(-c3ccccc3)cn12`
111

Value lookup for viability; key = `CCOC(=O)c1sc(N)nc1-c1ccccc1`
101

Consider the compound `Cc1nn(C(=O)c2cccs2)c(N)c1-c1ccccc1` and give its measured viability.
84.4

Given the compound `Cc1ccc(C(=O)NCCn2cc(SCC(=O)Nc3nnc(C)s3)c3ccccc32)cc1` , what is its reported viability?
62.5

====

- ASSAY REMARKS: viability gain of MRP-1-high H69AR cells under doxorubicin, pilot screen, MRP-1 activator project, CellTiter-Glo, duplicate (AID 807);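 further: compound pretreatment 18-22 h then 72 h combined with doxorubicin; 0% = doxorubicin alone and 100% = vehicle without doxorubicin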
- CONDITION DETAILS: H69AR viability with doxorubicin, CellTiter-Glo luminescence; at 10 µM; stronger effect = higher value
Quick list: viability increase per entry.
Note: unit % is implicit; provide only the numeric part.

| COMPOUND | MEASURED PARAMETER | MEASURED RESULT |
| --- | --- | --- |
| CCC(=O)NCCc1cc2ccc(C)cc2[nH]c1=O | viability increase | -1.94 |
| O=C(C1CCN(S(=O)(=O)c2ccc(F)cc2)CC1)N1CCOCC1 | viability increase | 0.84 |
| COc1cc(OC)c(Nc2cc(C)nc3nc(C)nn23)cc1Cl | viability increase | -1.47 |
| Cc1cc(NC(=O)CSc2cn(CCNC(=O)c3ccccc3)c3ccccc23)no1 | viability increase | -0.97 |
| CCCC(=O)C1=C(O)C(C(=O)OC)C(C)(C)CC1=NC (configuration not stated) | viability increase | 0.12 |
| Cn1c(C(=O)NC2CCCC2)cc2c(=O)n(C)c3ccccc3c21 | viability increase | -2.84 |
| COc1c(C)cc(Br)cc1C(=O)Nc1cccc(-c2nc3ncccc3o2)c1 | viability increase | -4.84 |
| CC(=O)c1c(N(C)C)ccnc1C(F)(F)F | viability increase | -2.95 |

Find the recorded viability increase belonging to `Cc1cccc(OCC(=O)NCc2ccncc2)c1C` and report it.
-1.63

I would be grateful if you could share the reported viability increase for O=C(Nc1ccccc1)N1CCN2C(=O)c3ccccc3C12c1ccccc1 (configuration not stated) .
-2.35

# query: viability increase of entry `CCOC(=O)c1ccc(NC(=O)NCCN2CCCCC2)cc1`
-0.32

Which viability increase value is on record for `CCOC(=O)c1nn(-c2ccccc2)c(=O)c2c(N)scc12` ?
-3.93
